- assayNotes: FRG1 promoter luciferase signal modulators, primary screen, FRG1 inhibition for FSHD, cell-based, C2C12 myotubes, firefly/Renilla luciferase, luminescence (AID 1084)
- assaySetup: higher = more signal, called active from +8 up or from −8 down
Active and inactive are the calls of the source.

compound	z-score
CC(C)CNC(=O)[C@@H]1c2ccccc2C(=O)N(Cc2cc(C(F)(F)F)cc(C(F)(F)F)c2)[C@H]1c1ccc(CO)cc1	0.53 (inactive)
COc1ccc([Si](C)(C)[C@@H]2[C@@H](CC(=O)N3CCC[C@H]3CO)O[C@]3(C(=O)N(C)c4c(Br)cc(C)cc43)[C@H]2C)cc1	-1.53 (inactive)
CCCCCN1CC=CC23O[C@@H]4C=CCOC(=O)[C@@H]4[C@H]2C(=O)N(CCCO)[C@@H]3C1=O (some centres undefined)	-0.482 (inactive)
O=C/C=C/c1ccc(Cl)cc1	-0.678 (inactive)
